- ASSAY SYSTEM: Histone deacetylase 1 (Homo sapiens, UniProt Q13547)
- Sequence (Q13547 whole entry): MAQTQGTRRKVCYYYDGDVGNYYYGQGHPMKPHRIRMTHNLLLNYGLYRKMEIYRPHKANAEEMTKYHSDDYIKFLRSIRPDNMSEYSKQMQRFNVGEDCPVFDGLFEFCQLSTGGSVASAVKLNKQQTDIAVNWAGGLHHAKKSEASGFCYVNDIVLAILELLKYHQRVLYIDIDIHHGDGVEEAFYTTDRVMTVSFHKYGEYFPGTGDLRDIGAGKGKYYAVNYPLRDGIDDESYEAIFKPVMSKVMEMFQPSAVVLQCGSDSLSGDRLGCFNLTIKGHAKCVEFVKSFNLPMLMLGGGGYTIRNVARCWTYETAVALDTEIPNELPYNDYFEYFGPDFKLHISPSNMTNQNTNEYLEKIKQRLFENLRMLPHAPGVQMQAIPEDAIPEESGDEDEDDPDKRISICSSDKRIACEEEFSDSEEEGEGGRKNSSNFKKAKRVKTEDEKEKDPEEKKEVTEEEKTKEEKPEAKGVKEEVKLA
- TEST DESCRIPTION: Inhibition of full length recombinant human C-terminal FLAG/His-tagged HDAC1 expressed in baculovirus expression system using Boc-Lys(acetyl)-AMC as substrate preincubated for 1 hr followed by substrate addition measured after 2 hrs by fluorescence assay
Listing of entries alongside the reported IC50.
EXPERIMENTAL READOUT: IC50 (nM)

GIVEN SMILES: CCCNNC(=O)c1ccc(NC(=O)[C@H](Cc2c[nH]c3ccccc23)NC(=O)c2ccc(OC)cc2)cc1
ASSAY SYSTEM: Histone deacetylase 1 (Homo sapiens, UniProt Q13547)
NUMERIC READOUT: 9.54

GIVEN SMILES: CCCCCNNC(=O)c1ccc(CNC(=O)[C@H](Cc2c[nH]c3ccccc23)NC(=O)c2ccc(OC)cc2)cc1
ASSAY SYSTEM: Histone deacetylase 1 (Homo sapiens, UniProt Q13547)
NUMERIC READOUT: 29.8

GIVEN SMILES: CCCCNNC(=O)c1ccc(CNC(=O)[C@H](Cc2c[nH]c3ccccc23)NC(=O)c2ccc(OC)cc2)cc1
ASSAY SYSTEM: Histone deacetylase 1 (Homo sapiens, UniProt Q13547)
NUMERIC READOUT: 53.7

GIVEN SMILES: CCCNNC(=O)CCCCCCNC(=O)[C@H](Cc1c[nH]c2ccccc12)NC(=O)c1ccc(OC)cc1
ASSAY SYSTEM: Histone deacetylase 1 (Homo sapiens, UniProt Q13547)
NUMERIC READOUT: 91.6

GIVEN SMILES: CCCNNC(=O)c1ccc(CNC(=O)[C@H](Cc2c[nH]c3ccccc23)NC(=O)c2ccc(OC)cc2)cc1
ASSAY SYSTEM: Histone deacetylase 1 (Homo sapiens, UniProt Q13547)
NUMERIC READOUT: 63.3

GIVEN SMILES: CCCNNC(=O)/C=C/c1ccc(OC[C@H](Cc2c[nH]c3ccccc23)NC(=O)c2ccc(OC)cc2)cc1
ASSAY SYSTEM: Histone deacetylase 1 (Homo sapiens, UniProt Q13547)
NUMERIC READOUT: 28.9

GIVEN SMILES: CCCNNC(=O)CCCCCCCNC(=O)[C@H](Cc1c[nH]c2ccccc12)NC(=O)c1ccc(OC)cc1
ASSAY SYSTEM: Histone deacetylase 1 (Homo sapiens, UniProt Q13547)
NUMERIC READOUT: 52.8

GIVEN SMILES: CCCNNC(=O)CCCCCNC(=O)[C@H](Cc1c[nH]c2ccccc12)NC(=O)c1ccc(OC)cc1
ASSAY SYSTEM: Histone deacetylase 1 (Homo sapiens, UniProt Q13547)
NUMERIC READOUT: 80.2
